Molecular target: Guanine nucleotide-binding protein G(o) subunit alpha (Homo sapiens)
Assay: compounds changing RGS7 association with Galphao – biochemical, multiplexed bead flow cytometry, primary screen (AID 1439);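 note: fluorescent Galphao held in activated GDP-AlF4 state binding bead-coupled RGS7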
Details: at 10 µM, actives lie on both sides
About 770 (0.35%) of roughly 220,000 compounds were called active. Inconclusive results (about 15%) are left out. Cut-off read from the data, not from the text of the source: active = binding response below about 49% or above about 150%; inconclusive = no clear call, values can overlap the other calls; inactive = in between. Only a selection was taken, and actives are over-represented in it overall.
Labels: true (1) (active), false (0) (inactive)

Compound	Classification
Cc1cc(C)n(-c2ccc(Cl)c(C(=O)O)n2)n1	false (0)
N#Cc1nc(Cc2ccccc2)oc1NCCc1ccccc1	false (0)
CCOC(=O)c1ccc(N2C(=O)CC(N3CCN(C(=O)c4ccccc4)CC3)C2=O)cc1 (centres undefined)	false (0)
NC(=O)c1ccc(CN2CCC(Cc3ccccc3)CC2)cc1	false (0)
Cc1ccc(S(=O)(=O)N(C)CC(=O)NC2CCCC2)cc1	false (0)
CN(CC(=O)NC1CCCCC1)S(=O)(=O)c1cccc2cccnc12	true (1)
Cc1ccc(-c2cc(C(F)(F)F)n3ncc(C(=O)N4CCCCC4c4cccnc4)c3n2)cc1 (centres undefined)	false (0)
COc1ccc(C(=O)COC(=O)c2ccc3ccccc3n2)cc1	true (1)
N#Cc1nc(COc2ccc(-c3ccccc3)cc2)oc1NCc1cccnc1	true (1)
COc1ccc(C2=NOC(COC(=O)c3ccc4ccccc4n3)C2)cc1 (centres undefined)	false (0)
COCCCN1C(=O)C(=O)/C(=C(/O)c2ccc3c(c2)CC(C)O3)C1c1cccnc1 (centres undefined)	false (0)
Cc1c(-c2cccc(Cl)c2)nc2ccccc2c1C(=O)OCC(=O)N(C)C1CCS(=O)(=O)C1 (centres undefined)	false (0)
CCOc1ccc(S(=O)(=O)Nc2nccs2)cc1	false (0)
CC(=O)c1ccc(NC(=O)C(C)N(C)CC(=O)Nc2ccccc2Cl)cc1 (centres undefined)	false (0)
O=C(NC1CC1)c1cccc(Br)c1	false (0)
CC(C)OCCCNC(=S)N1CCC(C(=O)c2ccc3c(c2)OCCO3)CC1	false (0)
Cc1ccc(N2C(=O)C3C(c4ccccc4)(C2=O)C3(c2ccccc2)c2ccccc2)cc1 (centres undefined)	true (1)
O=S1(=O)CCC(NC(=S)SCc2ccccc2Br)C1 (centres undefined)	false (0)
Cc1ccc(N=Nc2c(C)[nH]n(-c3ccccc3)c2=O)cc1	false (0)
COc1ccccc1NC(=O)CCCc1c[nH]c2ccccc12	true (1)
O=C(Nc1ccn(Cc2ccc(F)cc2)n1)c1ccncc1	false (0)
O=[N+]([O-])c1ccc2c(c1)C(N1CCOCC1)/C(=C/C1(O)CCCCC1)O2 (centres undefined)	false (0)
OCCC1CN(Cc2ccccc2-c2ccco2)CCN1Cc1ccsc1 (centres undefined)	false (0)
O=C(NC1CC1)c1ccc2c(c1)NC(=O)c1ccccc1S2	true (1)
Cc1c(NC(=S)NC(=O)CCc2ccccc2)c(=O)n(-c2ccccc2)n1C	false (0)
CCCCOC(=O)Cn1c(=O)n(CC(=O)OCCCC)c2cc(C)ccc21	false (0)
CCOc1cc(NC(=O)c2ccccn2)c(OCC)cc1NC(=O)c1ccc(OC)cc1	false (0)
Cc1ccc(NC(=O)NCC(c2cccnc2)N2CCOCC2)cc1 (centres undefined)	false (0)
COc1ccc(CC(=O)n2nc(-c3cccnc3)nc2N)cc1	false (0)
Cc1cc(C)nc(/N=C2\NC(=O)CC(C(=O)O)N2c2ccc(Cl)cc2Cl)n1 (centres undefined)	true (1)
COc1ccccc1NC(=O)C[n+]1ccccc1	false (0)
O=C(NCC1COc2ccccc2O1)C1(c2ccccc2)CCCC1 (centres undefined)	false (0)
O=C(O)c1ccccc1-c1ccccc1C(=O)NCc1cccnc1	false (0)
N#Cc1nc(-c2ccc(OCc3ccccc3)cc2)oc1NCCCN1CCOCC1	false (0)
